Tested on: Serratia marcescens expressing IMP-1 (CL5741)
Format: cell-based
experimentalSetup: IMP-1 strain CL5741, with imipenem 1 μg/ml, 95% inhibition of growth
parameter: Serratia marcescens MITC95 (µM)
Value expressed in µM; do not type the unit.

Serratia marcescens MITC95 for Nc1ccc(-c2ccc(S(=O)(=O)NC[C@H]3CNCCN3)c(S(N)(=O)=O)c2-c2nn[nH]n2)cn1 ?
0.7813

Would you kindly repeat that for Nc1ccc(-c2ccc(S(=O)(=O)NC[C@H](N)CO)c(S(N)(=O)=O)c2-c2nn[nH]n2)cn1 ?
0.7813

Would you kindly repeat that for NC[C@@H](O)CNS(=O)(=O)c1ccc(-c2ccc(N)nc2)c(-c2nn[nH]n2)c1S(N)(=O)=O ?
0.5859

Would you kindly repeat that for NC[C@@H](O)CNS(=O)(=O)c1ccc(-c2ccc3nccn3c2)c(-c2nn[nH]n2)c1S(N)(=O)=O ?
1.563

Would you kindly repeat that for C[C@@H](N)CNS(=O)(=O)c1ccc(-c2cccc3sc(N)nc23)c(-c2nn[nH]n2)c1S(N)(=O)=O ?
1.563

Would you kindly repeat that for NCCNS(=O)(=O)c1ccc(-c2cccc3[nH]c(C(F)(F)CN)nc23)c(-c2nn[nH]n2)c1S(N)(=O)=O ?
3.125

Would you kindly repeat that for CNc1nc2c(-c3ccc(S(=O)(=O)N[C@H]4CCNC4)c(S(N)(=O)=O)c3-c3nn[nH]n3)cccc2[nH]1 ?
0.7813

Would you kindly repeat that for NCCNS(=O)(=O)c1ccc(-c2cccc(NC[C@@H](O)CN)c2)c(-c2nn[nH]n2)c1S(N)(=O)=O ?
1.563

Would you kindly repeat that for C[C@@H](CN)NS(=O)(=O)c1ccc(-c2cc(F)cc3[nH]c(N)nc23)c(-c2nn[nH]n2)c1S(N)(=O)=O ?
0.7813

Would you kindly repeat that for NC[C@H](N)CNS(=O)(=O)c1ccc(-c2cccc(-c3c[nH]c(N)n3)c2)c(-c2nn[nH]n2)c1S(N)(=O)=O ?
1.563

Would you kindly repeat that for C[C@@H](CCN)NS(=O)(=O)c1ccc(-c2cccc3[nH]c(N)nc23)c(-c2nn[nH]n2)c1S(N)(=O)=O ?
1.563

Would you kindly repeat that for NCCNS(=O)(=O)c1ccc(-c2ccc3nccn3c2)c(-c2nn[nH]n2)c1S(N)(=O)=O ?
0.3906

Would you kindly repeat that for NCCN1CC[C@@H](NS(=O)(=O)c2ccc(-c3cccc4[nH]c(N)nc34)c(-c3nn[nH]n3)c2S(N)(=O)=O)C1 ?
1.563

Would you kindly repeat that for C[N+]1(CCN)CC[C@H](NS(=O)(=O)c2ccc(-c3cccc4[nH]c(N)nc34)c(-c3nn[nH]n3)c2S(N)(=O)=O)C1.O=C([O-])O (some centres unmarked) ?
1.563

Would you kindly repeat that for NCCCNS(=O)(=O)c1ccc(-c2cc(F)cc3[nH]c(N)nc23)c(-c2nn[nH]n2)c1S(N)(=O)=O ?
0.7813

Would you kindly repeat that for NCc1nc2cc(-c3ccc(S(=O)(=O)NC[C@H](O)CN)c(S(N)(=O)=O)c3-c3nn[nH]n3)ccc2s1 ?
0.7813

Would you kindly repeat that for NCC(CN)NS(=O)(=O)c1ccc(-c2ccc3nccn3c2)c(-c2nn[nH]n2)c1S(N)(=O)=O ?
0.7813
